Test system: human sense of taste
experiment summary: Sweetness measured by human sense of taste (20 trained subjects, minimum concentration at which sweetness is first sensed)
Assay type: in vivo
conditions used: primary brazzein variants, relative to minor-type brazzein
readout: Multiples of increased sweetness to minor-type brazzein

INSERT INTO assay_data (substance, target_desc, measured_value) VALUES
  ('E35H: primary brazzein variant: Glu at position 35 of minor-type brazzein substituted with His (DKCKKVYENYPVSKCQLANQCNYDCKLRKHARSGHCFYDEKRNLQCICDYCEY; Brazzein(E35H)) [Brazzein E35H]', 'human sense of taste', 0.08),
  ('K5A: primary brazzein variant: Lys at position 5 of minor-type brazzein substituted with Ala (DKCKAVYENYPVSKCQLANQCNYDCKLRKHARSGECFYDEKRNLQCICDYCEY; Brazzein(K5A)) [Brazzein K5A]', 'human sense of taste', 0.08),
  ('R32A: primary brazzein variant: Arg at position 32 of minor-type brazzein substituted with Ala (DKCKKVYENYPVSKCQLANQCNYDCKLRKHAASGECFYDEKRNLQCICDYCEY; Brazzein(R32A)) [Brazzein R32A]', 'human sense of taste', 0.08),
  ('E40R: primary brazzein variant: Glu at position 40 of minor-type brazzein substituted with Arg (DKCKKVYENYPVSKCQLANQCNYDCKLRKHARSGECFYDRKRNLQCICDYCEY; Brazzein(E40R)) [Brazzein E40R]', 'human sense of taste', 2);

Values compiled from patent US8592181B2.
